- target: LPAR1 (Homo sapiens, UniProt Q92633)
- Construct: host or cells: U2OS
- Sequence (Q92633 whole entry): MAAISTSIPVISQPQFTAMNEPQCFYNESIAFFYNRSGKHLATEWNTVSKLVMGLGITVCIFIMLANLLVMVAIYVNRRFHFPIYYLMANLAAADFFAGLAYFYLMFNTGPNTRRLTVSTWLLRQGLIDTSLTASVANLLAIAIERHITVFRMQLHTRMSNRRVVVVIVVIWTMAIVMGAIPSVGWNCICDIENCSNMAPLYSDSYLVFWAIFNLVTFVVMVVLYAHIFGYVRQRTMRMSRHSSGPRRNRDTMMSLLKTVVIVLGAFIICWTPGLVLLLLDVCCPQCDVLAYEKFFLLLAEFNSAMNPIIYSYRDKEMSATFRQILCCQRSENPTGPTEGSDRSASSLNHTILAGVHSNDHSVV
- assay-name: LPAR1 Arrestin Assay (arrestin reporter assay)
- Type: cell-based
- conditions-used: U2OS cells stably expressing the LPAR1 receptor; 200 nM 18:1 LPA (EC80); read-out: Maximum Inhibition
Assignment: determine reported Emax for the given molecules.
Numbers only, in %.

Some solved entries appear below for comparison.
Fill blank: measured Emax of the molecule COc1cc(OC)cc(C(=O)N(CCCCC(=O)O)CCCc2ccccc2)c1 [Example 7] is ____. 108

Fill blank: measured Emax of the molecule COc1cc(C(=O)N(CCCc2ccccc2)CCOCC(=O)O)cc(OC)c1C [Example 6] is ____. 130

Fill blank: measured Emax of the molecule COc1cc(OC)cc(C(=O)N(CCCCC(=O)O)CCCc2cccc(Cl)c2)c1 [Example 91] is ____. 120

Fill blank: measured Emax of the molecule COc1cc(C(=O)N(CCCc2cccc(Cl)c2)CCSCC(=O)O)cc(OC)c1C [Example 122] is ____. 127

Fill blank: measured Emax of the molecule COc1cc(C(=O)N(CCCc2ccccc2)CC(=O)NC(C)(C)C(=O)O)cc(OC)c1C [Example 45] is ____. 108

Fill blank: measured Emax of the molecule COc1cc(C(=O)N(CCCCC(=O)O)CCCc2cccc(F)c2)cc(OC)c1C [Example 33] is ____. 110

For each of the molecules below, state Emax.
1. COc1ccc(C2(C(=O)N(CCCc3ccccc3)CCSCC(=O)O)CC2)cc1 [Example 115]
2. COc1cc(C(=O)N(CCCc2ccccc2)CCCC(O)C(=O)O)cc(OC)c1C (centres unmarked) [Example 151]
3. COc1cc(OC)c(Cl)c(C(=O)N(CCCCC(=O)O)CCCc2ccccc2)c1 [Example 39]
4. COc1cc(OC)cc(C(=O)N(CCCCC(=O)O)CCCc2cccc(F)c2)c1 [Example 90]
5. COc1ccc(C2(C(=O)N(CCCCC(=O)O)CCCc3ccccc3)COC2)cc1 [Example 89]
6. COc1cc(C(=O)N(CCCCC(=O)O)CCCc2ccccc2)cc(OC)c1OC [Example 10]
7. COc1cc(C(=O)N(CCCc2ccccc2)CCCC(C)(C)C(=O)O)cc(OC)c1C [Example 57]

1. 104
2. 114
3. 99
4. 108
5. 114
6. 114
7. 103

For each of the molecules below, state Emax.
1. COc1cc(C(=O)N(CCCc2ccc(F)cc2)CCOCC(=O)O)cc(OC)c1C [Example 139]
2. COc1cc(C(=O)N(CCCCC(=O)O)CCCc2ccc(Cl)o2)cc(OC)c1C [Example 185]
3. COc1ccc(C2(C(=O)N(CCCCC(=O)O)CCCc3ccccc3)CC2)nc1 [Example 63]
4. COc1cc(C(=O)N(CCCCC(=O)O)CCCc2ccccc2)cc(OC)c1C(F)(F)F [Example 37]

1. 125
2. 122
3. 118
4. 122
